pIC50: −log10 of the molar value.
Consider compounds characterized by their pIC50 with calmodulin insensitive cyclic GMP phosphodiesterase (Homo sapiens).

Reference set, count: 2
input.smiles	pIC50
CCCOc1ccccc1-c1nc2nnc(NC)nc2c(=O)[nH]1	4.94 to 6.26
CCCOc1ccccc1-c1nc2ncc(=O)[nH]c2c(=O)[nH]1	4.94 to 6.26

For the next question, use this compound.
In: // fetch calmodulin insensitive cyclic GMP phosphodiesterase (Homo sapiens) pIC50 for "CCCOc1ccccc1-c1nc2nnc(OC)nc2c(=O)[nH]1"
Out: 4.94 to 6.26

# credit: patent US5047404A
